- test parameters: 373.15 K; 2000 kPa; Liquid
# reported mass density; entries follow

compound: CCCCCCCC[n+]1ccn(C)c1.F[B-](F)(F)F [1-methyl-3-octylimidazolium tetrafluoroborate]
mass density [kg/m3]: 1053.7

compound: CCCCn1cc[n+](C)c1.O=S(=O)([O-])C(F)(F)F [1-butyl-3-methylimidazolium trifluoromethanesulfonate]
mass density [kg/m3]: 1241.1

compound: CCCCn1cc[n+](C)c1.F[B-](F)(F)F [1-butyl-3-methylimidazolium tetrafluoroborate]
mass density [kg/m3]: 1149.3

compound: CCCCn1cc[n+](C)c1C.F[P-](F)(F)(F)(F)F [1-butyl-2,3-dimethylimidazolium hexafluorophosphate]
mass density [kg/m3]: 1291.9

compound: CCCCCCn1cc[n+](C)c1.F[P-](F)(F)(F)(F)F [1-hexyl-3-methylimidazolium hexafluorophosphate]
mass density [kg/m3]: 1234.9

compound: CCCCCCCC[n+]1ccn(C)c1.F[P-](F)(F)(F)(F)F [1-octyl-3-methylimidazolium hexafluorophosphate]
mass density [kg/m3]: 1180.6

----------
# reported mass density; entries follow
- test parameters: 343.15 K; 10000 kPa; Liquid

compound: CCCCn1cc[n+](C)c1C.F[P-](F)(F)(F)(F)F [1-butyl-2,3-dimethylimidazolium hexafluorophosphate]
reading unit: kg/m3
mass density: 1319.1
--
compound: CCCCCCCC[n+]1ccn(C)c1.F[B-](F)(F)F [1-methyl-3-octylimidazolium tetrafluoroborate]
reading unit: kg/m3
mass density: 1076.9
--
compound: CCCCn1cc[n+](C)c1.O=S(=O)([O-])C(F)(F)F [1-butyl-3-methylimidazolium trifluoromethanesulfonate]
reading unit: kg/m3
mass density: 1269.1
--
compound: CCCCCCCC[n+]1ccn(C)c1.F[P-](F)(F)(F)(F)F [1-octyl-3-methylimidazolium hexafluorophosphate]
reading unit: kg/m3
mass density: 1207.4
--
compound: CCCCCCn1cc[n+](C)c1.F[P-](F)(F)(F)(F)F [1-hexyl-3-methylimidazolium hexafluorophosphate]
reading unit: kg/m3
mass density: 1262
--
compound: CCCCn1cc[n+](C)c1.F[B-](F)(F)F [1-butyl-3-methylimidazolium tetrafluoroborate]
reading unit: kg/m3
mass density: 1173.1

----------
- test parameters: 383.15 K; 5000 kPa; Liquid

compound: CCCCn1cc[n+](C)c1C.F[P-](F)(F)(F)(F)F [1-butyl-2,3-dimethylimidazolium hexafluorophosphate]
reading unit: kg/m3
mass density: 1286.6
--
compound: CCCCn1cc[n+](C)c1.F[B-](F)(F)F [1-butyl-3-methylimidazolium tetrafluoroborate]
reading unit: kg/m3
mass density: 1144.8
--
compound: CCCCCCCC[n+]1ccn(C)c1.F[B-](F)(F)F [1-methyl-3-octylimidazolium tetrafluoroborate]
reading unit: kg/m3
mass density: 1049.8
--
compound: CCCCn1cc[n+](C)c1.O=S(=O)([O-])C(F)(F)F [1-butyl-3-methylimidazolium trifluoromethanesulfonate]
reading unit: kg/m3
mass density: 1236.1
--
compound: CCCCCCn1cc[n+](C)c1.F[P-](F)(F)(F)(F)F [1-hexyl-3-methylimidazolium hexafluorophosphate]
reading unit: kg/m3
mass density: 1230.1
--
compound: CCCCCCCC[n+]1ccn(C)c1.F[P-](F)(F)(F)(F)F [1-octyl-3-methylimidazolium hexafluorophosphate]
reading unit: kg/m3
mass density: 1176.3

----------
- test parameters: 383.15 K; 4000 kPa; Liquid
readout: mass density (kg/m3)

molecule: CCCCCCCC[n+]1ccn(C)c1.F[B-](F)(F)F [1-methyl-3-octylimidazolium tetrafluoroborate]
reading unit: kg/m3
test result: 1049.2
//
molecule: CCCCn1cc[n+](C)c1.O=S(=O)([O-])C(F)(F)F [1-butyl-3-methylimidazolium trifluoromethanesulfonate]
reading unit: kg/m3
test result: 1235.4
//
molecule: CCCCn1cc[n+](C)c1C.F[P-](F)(F)(F)(F)F [1-butyl-2,3-dimethylimidazolium hexafluorophosphate]
reading unit: kg/m3
test result: 1286
//
molecule: CCCCCCn1cc[n+](C)c1.F[P-](F)(F)(F)(F)F [1-hexyl-3-methylimidazolium hexafluorophosphate]
reading unit: kg/m3
test result: 1229.4
//
molecule: CCCCCCCC[n+]1ccn(C)c1.F[P-](F)(F)(F)(F)F [1-octyl-3-methylimidazolium hexafluorophosphate]
reading unit: kg/m3
test result: 1175.6
//
molecule: CCCCn1cc[n+](C)c1.F[B-](F)(F)F [1-butyl-3-methylimidazolium tetrafluoroborate]
reading unit: kg/m3
test result: 1144.3
